# Tested on: T47D
# test.description: Antiproliferative activity against human T47D cells transfected with Nur77 siRNA assessed as inhibition of cell growth measured after 24 hrs by MTT assay
# Assay type: functional, cell-based
readout.name: IC50 (µM)
Your answer should be a plain number; it is taken to be in µM.

Give the reported value of IC50 for this record: CCN(CC)CCCNC(=O)c1cc2cc(Nc3nccc(-c4sc(NC)nc4C)n3)ccc2[nH]1
6.34

###

# test.description: Cytotoxicity against human MCF-10A cells assessed as inhibition of cell growth measured after 24 hrs by MTT assay
# Format: toxicity, cell-based
readout.name: log10 of IC50 at 24 h (log10 of the value in µM)
Hello, just confirming the data are log10 of IC50 at 24 h with units of µM.

| molecule | reported.value |
| --- | --- |
| CCN(CC)CCCNC(=O)c1cc2cc(Nc3nccc(-c4nc(C)sc4C)n3)ccc2[nH]1 | 1.28 |
| CCN(CC)CCCNC(=O)c1cc2cc(Nc3nccc(-c4cccs4)n3)ccc2[nH]1 | 1.16 |
| CCN(CC)CCCNC(=O)c1cc2cc(Nc3nccc(-c4ccc(C(F)(F)F)cc4)n3)ccc2[nH]1 | 0.82 |
| CCN(CC)CCCNC(=O)c1cc2cc(Nc3nccc(-c4ccccc4)n3)ccc2[nH]1 | 1.11 |
| CN(C)CCCNC(=O)c1cc2cc(Nc3nccc(-c4ccc(C(F)(F)F)cc4)n3)ccc2[nH]1 | 0.32 |

Give me measured log10 of IC50 at 24 h, please, for this molecule: CC1=C(O)C(=O)C=C2C1=CC=C1[C@@]2(C)CC[C@@]2(C)[C@@H]3C[C@](C)(C(=O)O)CC[C@]3(C)CC[C@]12C [CELASTROL]
0.74

Specify measured log10 of IC50 at 24 h for Cc1nc(-c2ccnc(Nc3ccc4[nH]c(C(=O)NCCCN(C)C)cc4c3)n2)c(C)s1 .
1.20

Give log10 of IC50 at 24 h for the following molecule: Cc1nc(-c2ccnc(Nc3ccc4[nH]c(C(=O)NCCN5CCOCC5)cc4c3)n2)c(C)s1
1.19

Name the recorded log10 of IC50 at 24 h of the item CCN(CC)CCCNC(=O)c1cc2cc(Nc3nccc(-c4ccc(OC)c(OC)c4)n3)ccc2[nH]1 in your answer.
0.55

Consider the molecule CN(C)CCCNC(=O)c1cc2cc(Nc3nccc(-c4cc(OCc5ccccc5)cc(OCc5ccccc5)c4)n3)ccc2[nH]1 . State its measured log10 of IC50 at 24 h.
0.59

State, in one line, measured log10 of IC50 at 24 h of CCCCN(CCCC)CCCNC(=O)c1cc2cc(Nc3nccc(-c4cccnc4)n3)ccc2[nH]1
0.81

Complete the entry with log10 of IC50 at 24 h for O=C(NCCN1CCCCC1)c1cc2cc(Nc3nccc(-c4cccc(OCc5ccccc5)c4)n3)ccc2[nH]1
0.25
